Target: PPARγ (Homo sapiens)
Construct: Following the challenge of the preadipocytes, cells may be lysed with lysis buffer; endogenous in cells; host or cells: preadipocytes
Sequence (P37231 1-505): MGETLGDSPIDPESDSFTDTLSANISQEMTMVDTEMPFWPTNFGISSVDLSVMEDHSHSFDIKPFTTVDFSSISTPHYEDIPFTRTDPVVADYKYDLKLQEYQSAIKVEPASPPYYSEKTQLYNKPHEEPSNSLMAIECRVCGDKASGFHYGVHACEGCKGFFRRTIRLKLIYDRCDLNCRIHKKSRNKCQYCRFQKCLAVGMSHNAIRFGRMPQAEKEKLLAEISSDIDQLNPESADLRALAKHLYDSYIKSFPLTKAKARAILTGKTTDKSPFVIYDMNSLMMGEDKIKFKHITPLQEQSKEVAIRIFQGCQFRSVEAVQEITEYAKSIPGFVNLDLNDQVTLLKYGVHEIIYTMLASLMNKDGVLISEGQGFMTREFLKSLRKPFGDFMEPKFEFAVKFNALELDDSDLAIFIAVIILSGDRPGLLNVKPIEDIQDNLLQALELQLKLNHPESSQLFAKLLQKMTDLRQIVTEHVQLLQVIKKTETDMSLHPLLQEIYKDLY
Assay: aP2 assay for PPAR gamma agonists (bDNA aP2 mRNA in preadipocytes)
Format: cell-based
Settings: unbracketed values; PPARγ standard FI = 70.3
Recorded Endpoint: PPARγ FI (fold induction)

INSERT INTO results (molecule, recorded_endpoint, quantitative_result) VALUES
  ('CCN(C(=O)Nc1ccc(OC(F)(F)F)cc1)C1Cc2ccc(SC(C)(C)C(=O)O)cc2C1 (stereo not shown)', 'PPARγ FI (fold induction)', 0.24),
  ('CCCCCN(C(=O)Nc1ccc(C(C)(C)C)cc1)C1Cc2ccc(SC(C)(C)C(=O)O)cc2C1 (stereo not shown)', 'PPARγ FI (fold induction)', 6.1),
  ('CCCCN(C(=O)Nc1ccc(SC(F)(F)F)cc1)C1Cc2ccc(SC(C)(C)C(=O)O)cc2C1 (stereo not shown)', 'PPARγ FI (fold induction)', 0.43),
  ('CCCN(C(=O)Nc1ccc(OC(F)(F)F)cc1)C1Cc2ccc(SC(C)(C)C(=O)O)cc2C1 (stereo not shown)', 'PPARγ FI (fold induction)', 0.37);

----------
Target: UniProt Q03181
Sequence (Q03181 171-441 limits assumed): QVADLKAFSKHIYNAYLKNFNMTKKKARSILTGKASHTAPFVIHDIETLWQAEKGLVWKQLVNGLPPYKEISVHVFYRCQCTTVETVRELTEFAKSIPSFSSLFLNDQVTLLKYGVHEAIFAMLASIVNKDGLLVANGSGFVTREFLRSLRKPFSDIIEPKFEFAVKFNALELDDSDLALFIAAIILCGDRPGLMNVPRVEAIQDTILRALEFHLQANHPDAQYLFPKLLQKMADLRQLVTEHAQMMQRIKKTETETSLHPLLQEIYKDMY
Assay: Transfection assay for PPARδ receptors (PPAR-Gal4 / Gal4-luciferase reporter in HEK293 cells)
Type: cell-based
Conditions: unbracketed values, PPARδ standard FI = 36.1
Catalogue of PPARδ FI (fold induction) readings, one per entry.
Recorded Endpoint: PPARδ FI (fold induction)

INSERT INTO assay_data (compound, recorded_endpoint, quantitative_result) VALUES
  ('CCCCCCN(C(=O)Nc1ccc(OC(F)(F)F)cc1)C1Cc2ccc(SC(C)(C)C(=O)O)cc2C1 (stereo not drawn)', 'PPARδ FI (fold induction)', 1.3),
  ('CCN(C(=O)Nc1ccc(OC(F)(F)F)cc1)C1Cc2ccc(SC(C)(C)C(=O)O)cc2C1 (stereo not drawn)', 'PPARδ FI (fold induction)', 4.2),
  ('C=CCCCN(C(=O)Nc1ccc(OC(F)(F)F)cc1)C1Cc2ccc(SC(C)(C)C(=O)O)cc2C1 (stereo not drawn)', 'PPARδ FI (fold induction)', 1.4),
  ('CCN(C(=O)Nc1cccc(OC(F)(F)F)c1)C1Cc2ccc(SC(C)(C)C(=O)O)cc2C1 (stereo not drawn)', 'PPARδ FI (fold induction)', 2.1),
  ('CCCCCN(C(=O)Nc1ccc(SC(F)(F)F)cc1)C1Cc2ccc(SC(C)(C)C(=O)O)cc2C1 (stereo not drawn)', 'PPARδ FI (fold induction)', 2.5),
  ('CCCN(C(=O)Nc1ccc(OC(F)(F)F)cc1)C1CCc2ccc(SC(C)(C)C(=O)O)cc2C1 (stereo not drawn)', 'PPARδ FI (fold induction)', 6.0),
  ('CCN(C(=O)Nc1ccc(OC(F)(F)F)c(Br)c1)C1Cc2ccc(SC(C)(C)C(=O)O)cc2C1 (stereo not drawn)', 'PPARδ FI (fold induction)', 4.5),
  ('CC(C)(Sc1ccc2c(c1)CC(N(CCCC1CCCC1)C(=O)Nc1ccccc1)C2)C(=O)O (stereo not drawn)', 'PPARδ FI (fold induction)', 1.9),
  ('CC(C)(Sc1ccc2c(c1)CC(N(CCCC1CCCC1)C(=O)Nc1ccc(OC(F)(F)F)cc1)C2)C(=O)O (stereo not drawn)', 'PPARδ FI (fold induction)', 8.2),
  ('CCN(C(=O)Nc1ccc(N(C)C)cc1)C1Cc2ccc(SC(C)(C)C(=O)O)cc2C1 (stereo not drawn)', 'PPARδ FI (fold induction)', 0.8),
  ('CCN(C(=O)Nc1ccc(C(C)C)cc1)C1Cc2ccc(SC(C)(C)C(=O)O)cc2C1 (stereo not drawn)', 'PPARδ FI (fold induction)', 3.6),
  ('CCCN(C(=O)Nc1cc(C)cc(C)c1)C1Cc2ccc(SC(C)(C)C(=O)O)cc2C1 (stereo not drawn)', 'PPARδ FI (fold induction)', 0.8),
  ('CCCCCN(C(=O)Nc1ccc(OC(F)(F)F)cc1)C1Cc2ccc(SC(C)(C)C(=O)O)cc2C1 (stereo not drawn)', 'PPARδ FI (fold induction)', 5.9),
  ('CCCN(C(=O)Nc1ccc(OC)cc1)C1Cc2ccc(SC(C)(C)C(=O)O)cc2C1 (stereo not drawn)', 'PPARδ FI (fold induction)', 1.5),
  ('CCCCCN(C(=O)Nc1ccc(N(C)C)cc1)C1Cc2ccc(SC(C)(C)C(=O)O)cc2C1 (stereo not drawn)', 'PPARδ FI (fold induction)', 1.0),
  ('CCCCCN(C(=O)Nc1ccc2ccccc2c1)C1Cc2ccc(SC(C)(C)C(=O)O)cc2C1 (stereo not drawn)', 'PPARδ FI (fold induction)', 9.3),
  ('CCCN(C(=O)Nc1ccc(C(F)(F)F)cc1)C1Cc2ccc(SC(C)(C)C(=O)O)cc2C1 (stereo not drawn)', 'PPARδ FI (fold induction)', 5.6),
  ('CCCCCCN(C(=O)Nc1ccc(SC(F)(F)F)cc1)C1Cc2ccc(SC(C)(C)C(=O)O)cc2C1 (stereo not drawn)', 'PPARδ FI (fold induction)', 1.2);

meta.source: patent US7351857B2
